Below, each entry is listed alongside its reported Ki.
# Tgt: human recombinant mineralocorticoid receptor (MR) (Homo sapiens, UniProt P08235)
# Construct: made in house; host or cells: insect cell Sf9 (baculovirus)
# Sequence (P08235 whole entry): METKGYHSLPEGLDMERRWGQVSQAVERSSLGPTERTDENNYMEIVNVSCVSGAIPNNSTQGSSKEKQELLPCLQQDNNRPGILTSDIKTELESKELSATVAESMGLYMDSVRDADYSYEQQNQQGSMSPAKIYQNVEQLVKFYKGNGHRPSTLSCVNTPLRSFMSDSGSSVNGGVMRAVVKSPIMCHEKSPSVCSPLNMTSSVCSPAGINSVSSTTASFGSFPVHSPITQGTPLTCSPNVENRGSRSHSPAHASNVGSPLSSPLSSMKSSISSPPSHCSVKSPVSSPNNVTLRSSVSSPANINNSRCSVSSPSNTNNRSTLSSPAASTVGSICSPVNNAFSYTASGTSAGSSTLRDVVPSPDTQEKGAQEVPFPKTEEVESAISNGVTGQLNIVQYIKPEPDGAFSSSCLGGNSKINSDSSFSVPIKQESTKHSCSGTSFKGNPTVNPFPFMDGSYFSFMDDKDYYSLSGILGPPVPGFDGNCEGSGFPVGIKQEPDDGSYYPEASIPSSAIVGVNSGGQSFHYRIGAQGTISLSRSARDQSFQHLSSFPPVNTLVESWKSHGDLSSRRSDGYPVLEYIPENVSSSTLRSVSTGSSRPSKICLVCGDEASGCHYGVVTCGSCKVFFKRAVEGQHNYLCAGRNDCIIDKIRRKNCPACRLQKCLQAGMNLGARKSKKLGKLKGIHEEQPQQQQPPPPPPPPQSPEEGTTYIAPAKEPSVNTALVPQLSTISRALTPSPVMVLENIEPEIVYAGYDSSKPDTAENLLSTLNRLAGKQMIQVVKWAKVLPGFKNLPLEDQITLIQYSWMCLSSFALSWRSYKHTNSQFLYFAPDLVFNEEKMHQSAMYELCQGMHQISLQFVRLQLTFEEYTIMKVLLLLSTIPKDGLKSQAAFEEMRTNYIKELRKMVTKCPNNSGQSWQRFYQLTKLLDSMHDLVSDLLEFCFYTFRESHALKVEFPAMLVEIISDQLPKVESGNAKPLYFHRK
# Assay procedure: Radioactive ligand binding test, MR cytosol, [3H]-Ald

// solved cases for Ki follow
| Compound | Ki |
| --- | --- |
| CC1(C)Nc2c(cc(-c3cccc4nccn34)c3c2OC(F)(F)O3)C(C)(C)C1=O | > 1000 nM |
| C=CCC1(C)C(=O)C(C)(C)Nc2c1cc(-c1cccc3cc[nH]c13)c1c2OCO1 (stereo not shown) | > 1000 nM |
| CC1(C)Nc2c(cc(-c3cccc4nccn34)c3c2OCO3)C(C)(C)C1=O | > 1000 nM |

With those in mind, consider the next compound.
Give its Ki value. Item: `Cc1noc(C)c1-c1cc2c(c3c1CCC3)NC(C)(C)C(=O)C2(C)C`
> 1000 nM

# credit: patent US8367695B2
